Data provenance is patent US20250275966A1.

- Protocol description: Pharmacokinetic analysis of Compound 1 and its salts after oral capsule administration (Example 4)
- Format: in vivo, cynomolgus monkeys
- Condition summary: 3 male cynomolgus monkeys, single PO capsule, 30 mg/kg, plasma Compound 1
Where a name gives a salt, the structure may show the parent alone.
Recorded metric: AUClast (ng·h/mL)

>>> print(df.to_string())
                                   compound  assay_value
0  [2H]C([2H])([2H])C(c1cc2nnc(-c3cc(F)ccc3F)n2nc1OCc1ncnn1C)(C([2H])([2H])[2H])C([2H])([2H])[2H] [Phosphate Salt]        18378
1  [2H]C([2H])([2H])C(c1cc2nnc(-c3cc(F)ccc3F)n2nc1OCc1ncnn1C)(C([2H])([2H])[2H])C([2H])([2H])[2H] [Malonate Salt]        24694
2  [2H]C([2H])([2H])C(c1cc2nnc(-c3cc(F)ccc3F)n2nc1OCc1ncnn1C)(C([2H])([2H])[2H])C([2H])([2H])[2H] [Maleate Salt]        20575

---

- Protocol description: Pharmacokinetic analysis of Compound 1 and its salts after oral capsule administration (Example 4)
- Assay type: in vivo, cynomolgus monkeys
- Condition summary: male, cynomolgus monkey, plasma, po, 30 mg/kg, male cynomolgus monkeys, single PO capsule
- Description: A pharmacokinetic analysis was performed comparing administration of Compound 1 with certain salts of Compound 1 after oral (PO) administration in 3 male cynomolgus monkeys. […] All plasma samples were stored frozen below −70° C. until analyzed.
Structures can show the parent of a compound that is named as a salt.
Recorded metric: AUC(0-t) (ng·h/mL)

>>> print(df.to_string())
                                   compound  assay_value
0  [2H]C([2H])([2H])C(c1cc2nnc(-c3cc(F)ccc3F)n2nc1OCc1ncnn1C)(C([2H])([2H])[2H])C([2H])([2H])[2H] [Fumarate Salt]        38900

---

- Protocol description: Pharmacokinetic analysis of Compound 1 and its salts after oral capsule administration (Example 4)
- Assay type: in vivo, cynomolgus monkeys
- Condition summary: 3 male cynomolgus monkeys, single PO capsule, 30 mg/kg, plasma Compound 1
Counter-ions that a name gives are not always drawn.
Recorded metric: Tmax (h)

                                   molecule  recorded_metric  units_label  assay_value
0  [2H]C([2H])([2H])C(c1cc2nnc(-c3cc(F)ccc3F)n2nc1OCc1ncnn1C)(C([2H])([2H])[2H])C([2H])([2H])[2H] [Malonate Salt]             Tmax            h          4.7
1  [2H]C([2H])([2H])C(c1cc2nnc(-c3cc(F)ccc3F)n2nc1OCc1ncnn1C)(C([2H])([2H])[2H])C([2H])([2H])[2H] [Hydrochloride Salt]             Tmax            h          4.0
2  [2H]C([2H])([2H])C(c1cc2nnc(-c3cc(F)ccc3F)n2nc1OCc1ncnn1C)(C([2H])([2H])[2H])C([2H])([2H])[2H] [Tosylate Salt]             Tmax            h         10.7
3  [2H]C([2H])([2H])C(c1cc2nnc(-c3cc(F)ccc3F)n2nc1OCc1ncnn1C)(C([2H])([2H])[2H])C([2H])([2H])[2H] [Maleate Salt]             Tmax            h         12.0
4  [2H]C([2H])([2H])C(c1cc2nnc(-c3cc(F)ccc3F)n2nc1OCc1ncnn1C)(C([2H])([2H])[2H])C([2H])([2H])[2H] [Fumarate Salt]             Tmax            h          4.7
5  [2H]C([2H])([2H])C(c1cc2nnc(-c3cc(F)ccc3F)n2nc1OCc1ncnn1C)(C([2H])([2H])[2H])C([2H])([2H])[2H] [Sulfate Salt]             Tmax            h          4.0
6  [2H]C([2H])([2H])C(c1cc2nnc(-c3cc(F)ccc3F)n2nc1OCc1ncnn1C)(C([2H])([2H])[2H])C([2H])([2H])[2H] [Phosphate Salt]             Tmax            h          5.3

---

- Protocol description: Intrinsic dissolution rate and solubility in 0.1 N HCl with 1% Tween 80 (USP <1087>)
- Format: physicochemical
- Condition summary: 0.1 N HCl with 1% Tween 80, 37° C., 500 mL, pellet about 75 mg, 105 min
Structures can show the parent of a compound that is named as a salt.
Answer N if Solubility, time point 105 min is under 0.9 µg/mL, and Y if it is 0.9 µg/mL or more.

In [3]: df
Out[3]:
                                   compound  class_label
0  [2H]C([2H])([2H])C(c1cc2nnc(-c3cc(F)ccc3F)n2nc1OCc1ncnn1C)(C([2H])([2H])[2H])C([2H])([2H])[2H] [Fumarate Salt]            N
1  [2H]C([2H])([2H])C(c1cc2nnc(-c3cc(F)ccc3F)n2nc1OCc1ncnn1C)(C([2H])([2H])[2H])C([2H])([2H])[2H] [Sulfate Salt]            Y
2  [2H]C([2H])([2H])C(c1cc2nnc(-c3cc(F)ccc3F)n2nc1OCc1ncnn1C)(C([2H])([2H])[2H])C([2H])([2H])[2H] [Tosylate Salt]            Y
3  [2H]C([2H])([2H])C(c1cc2nnc(-c3cc(F)ccc3F)n2nc1OCc1ncnn1C)(C([2H])([2H])[2H])C([2H])([2H])[2H] [Malonate Salt]            Y
4  [2H]C([2H])([2H])C(c1cc2nnc(-c3cc(F)ccc3F)n2nc1OCc1ncnn1C)(C([2H])([2H])[2H])C([2H])([2H])[2H] [Maleate Salt]            Y

---

- Protocol description: Pharmacokinetic analysis of Compound 1 and its salts after oral capsule administration (Example 4)
- Assay type: in vivo, cynomolgus monkeys
- Condition summary: 3 male cynomolgus monkeys, single PO capsule, 30 mg/kg, plasma Compound 1
Where a name gives a salt, the structure may show the parent alone.
Reported Cmax values are given for each entry in this list.
Recorded metric: Cmax (ng/mL)

In [3]: df
Out[3]:
                                   compound  assay_value
0  [2H]C([2H])([2H])C(c1cc2nnc(-c3cc(F)ccc3F)n2nc1OCc1ncnn1C)(C([2H])([2H])[2H])C([2H])([2H])[2H] [Phosphate Salt]         1096
1  [2H]C([2H])([2H])C(c1cc2nnc(-c3cc(F)ccc3F)n2nc1OCc1ncnn1C)(C([2H])([2H])[2H])C([2H])([2H])[2H] [Malonate Salt]         2010
2  [2H]C([2H])([2H])C(c1cc2nnc(-c3cc(F)ccc3F)n2nc1OCc1ncnn1C)(C([2H])([2H])[2H])C([2H])([2H])[2H] [Fumarate Salt]         3080
3  [2H]C([2H])([2H])C(c1cc2nnc(-c3cc(F)ccc3F)n2nc1OCc1ncnn1C)(C([2H])([2H])[2H])C([2H])([2H])[2H] [Compound 1]         1550
4  [2H]C([2H])([2H])C(c1cc2nnc(-c3cc(F)ccc3F)n2nc1OCc1ncnn1C)(C([2H])([2H])[2H])C([2H])([2H])[2H] [Sulfate Salt]         1151
5  [2H]C([2H])([2H])C(c1cc2nnc(-c3cc(F)ccc3F)n2nc1OCc1ncnn1C)(C([2H])([2H])[2H])C([2H])([2H])[2H] [Hydrochloride Salt]         1583
6  [2H]C([2H])([2H])C(c1cc2nnc(-c3cc(F)ccc3F)n2nc1OCc1ncnn1C)(C([2H])([2H])[2H])C([2H])([2H])[2H] [Tosylate Salt]         1629
7  [2H]C([2H])([2H])C(c1cc2nnc(-c3cc(F)ccc3F)n2nc1OCc1ncnn1C)(C([2H])([2H])[2H])C([2H])([2H])[2H] [Maleate Salt]         1388

---

- Protocol description: Intrinsic dissolution rate and solubility in 0.1 N HCl with 1% Tween 80 (USP <1087>)
- Format: physicochemical
- Condition summary: 0.1 N HCl with 1% Tween 80, 37° C., 500 mL, pellet about 75 mg, 120 min
Counter-ions that a name gives are not always drawn.
Examples of compounds with documented Solubility, time point 120 min follow.
Recorded metric: Solubility, time point 120 min (µg/mL)

In [3]: df
Out[3]:
                                   compound  units_label  assay_value
0  [2H]C([2H])([2H])C(c1cc2nnc(-c3cc(F)ccc3F)n2nc1OCc1ncnn1C)(C([2H])([2H])[2H])C([2H])([2H])[2H] [Fumarate Salt]        µg/mL        0.993
1  [2H]C([2H])([2H])C(c1cc2nnc(-c3cc(F)ccc3F)n2nc1OCc1ncnn1C)(C([2H])([2H])[2H])C([2H])([2H])[2H] [Maleate Salt]        µg/mL         1.01
2  [2H]C([2H])([2H])C(c1cc2nnc(-c3cc(F)ccc3F)n2nc1OCc1ncnn1C)(C([2H])([2H])[2H])C([2H])([2H])[2H] [Malonate Salt]        µg/mL         1.05
3  [2H]C([2H])([2H])C(c1cc2nnc(-c3cc(F)ccc3F)n2nc1OCc1ncnn1C)(C([2H])([2H])[2H])C([2H])([2H])[2H] [Phosphate Salt]        µg/mL         0.11
